Source listed as paper PMC11714206.

target: MyD88^TIR (Homo sapiens); construct: MyD88 (residues 148–296); 6xHis; made in house; host or cells: E. coli BL21 (DE3); assay: T‐Surf phage library (P8 and P3) selection against MyD88^TIR, four rounds, NGS read counts; format: binding; conditions: P3_MyD88: rank by count before grouping
Sequence (Q99836 148-296): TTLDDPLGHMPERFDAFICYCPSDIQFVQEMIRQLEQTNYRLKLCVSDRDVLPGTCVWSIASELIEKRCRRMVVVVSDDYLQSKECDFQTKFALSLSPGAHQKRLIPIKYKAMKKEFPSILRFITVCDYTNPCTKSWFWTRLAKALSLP
readout_type: Rank (before)

[[record]]
sequence_text = "KEVEGWRDALTKAANL"
obs_value = 3640


P = EWIREGLWRLLELSKK
Q = LKWGGSCLSIKLAYAM
Between the entries labeled P and Q , whose measured Rank (before) is lower? Output the label that corresponds to your choice.
P
(P: 361, Q: 2411)
